ASSAYED_SYSTEM: UniProt P00797
Sequence (P00797 whole entry): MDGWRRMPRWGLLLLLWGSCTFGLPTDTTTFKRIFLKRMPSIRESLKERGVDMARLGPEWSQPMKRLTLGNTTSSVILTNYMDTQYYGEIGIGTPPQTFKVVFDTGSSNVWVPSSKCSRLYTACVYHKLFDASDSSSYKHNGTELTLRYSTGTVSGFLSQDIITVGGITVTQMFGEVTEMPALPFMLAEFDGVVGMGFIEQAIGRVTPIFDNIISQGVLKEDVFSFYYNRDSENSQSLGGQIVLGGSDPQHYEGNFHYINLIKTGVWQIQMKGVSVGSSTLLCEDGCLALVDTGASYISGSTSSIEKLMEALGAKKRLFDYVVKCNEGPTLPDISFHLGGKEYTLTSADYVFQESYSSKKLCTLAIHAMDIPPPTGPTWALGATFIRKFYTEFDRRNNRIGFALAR
ASSAY_INFO: Inhibitory activity against human plasma renin
Type: cell-free
pIC50: −log10 of the molar value.
Each entry gets F if its pIC50 stays under 7, and T if its pIC50 is 7 or above.

Worked examples, 8 molecules total:
Q) Could you please find out whether CCC(C)CNC(=O)C[C@H](O)C(CC(C)C)NC(=O)C(C/C=C/C/N=C(/S)NC)NC(=O)C(Cc1cccc2ccccc12)Cc1cccc2ccccc12 (stereo partly drawn) has pIC50 that meets 7 or exceeds it?
A) T

Q) Could you please find out whether CCC(C)CNC(=O)C[C@H](O)C(CC(C)C)NC(=O)C(CCCCN)NC(=O)C(Cc1cccc2ccccc12)Cc1cccc2ccccc12 (stereo partly drawn) has pIC50 that meets 7 or exceeds it?
A) F

Q) Could you please find out whether CC(C)CC(NC(=O)C(CCCC/N=C(/N)N[N+](=O)[O-])NC(=O)C(Cc1cccc2ccccc12)Cc1cccc2ccccc12)[C@@H](O)CC(=O)N1CCOC(CCN)C1 (stereo partly drawn) has pIC50 that meets 7 or exceeds it?
A) T

Q) Could you please find out whether CCC(C)CNC(=O)C[C@H](O)C(CC(C)C)NC(=O)C(CC#CCNC(C)=O)NC(=O)C(Cc1cccc2ccccc12)Cc1cccc2ccccc12 (stereo in doubt; 55b) has pIC50 that meets 7 or exceeds it?
A) T

Q) Could you please find out whether CCC(C)CNC(=O)C[C@H](O)C(CC(C)C)NC(=O)C(CCCCCNC(=S)NC)NC(=O)C(Cc1cccc2ccccc12)Cc1cccc2ccccc12 (stereo partly drawn) has pIC50 that meets 7 or exceeds it?
A) T

Q) Could you please find out whether C/N=C(\S)NCCCCC(NC(=O)C(CC(=O)N1CCOCC1)Cc1cccc2ccccc12)C(=O)NC(CC1CCCCC1)[C@@H](O)CC(=O)N1CCOC(CCN)C1 (stereo partly drawn) has pIC50 that meets 7 or exceeds it?
A) T

Q) Could you please find out whether CCC(C)CNC(=O)C[C@H](O)C(CC(C)C)NC(=O)C(CCCCCCN=C(S)NC)NC(=O)C(Cc1cccc2ccccc12)Cc1cccc2ccccc12 (stereo partly drawn) has pIC50 that meets 7 or exceeds it?
A) T

Q) Could you please find out whether CCC(C)CNC(=O)C[C@H](O)C(CC(C)C)NC(=O)C(CCCCNC(N)=O)NC(=O)C(Cc1cccc2ccccc12)Cc1cccc2ccccc12 (stereo partly drawn) has pIC50 that meets 7 or exceeds it?
A) T

More entries:
Q) Could you please find out whether CCC(C)CNC(=O)C[C@H](O)C(CC(C)C)NC(=O)C(CCCn1cccc1)NC(=O)C(Cc1cccc2ccccc12)Cc1cccc2ccccc12 (stereo partly drawn) has pIC50 that meets 7 or exceeds it?
A) F

Q) Could you please find out whether CCC(C)CNC(=O)C[C@H](O)C(CC(C)C)NC(=O)C(CCNC(=S)NC)NC(=O)C(Cc1cccc2ccccc12)Cc1cccc2ccccc12 (stereo partly drawn) has pIC50 that meets 7 or exceeds it?
A) F

###

ASSAYED_SYSTEM: Cathepsin D (Bos taurus, UniProt P80209)
Sequence (P80209 whole entry): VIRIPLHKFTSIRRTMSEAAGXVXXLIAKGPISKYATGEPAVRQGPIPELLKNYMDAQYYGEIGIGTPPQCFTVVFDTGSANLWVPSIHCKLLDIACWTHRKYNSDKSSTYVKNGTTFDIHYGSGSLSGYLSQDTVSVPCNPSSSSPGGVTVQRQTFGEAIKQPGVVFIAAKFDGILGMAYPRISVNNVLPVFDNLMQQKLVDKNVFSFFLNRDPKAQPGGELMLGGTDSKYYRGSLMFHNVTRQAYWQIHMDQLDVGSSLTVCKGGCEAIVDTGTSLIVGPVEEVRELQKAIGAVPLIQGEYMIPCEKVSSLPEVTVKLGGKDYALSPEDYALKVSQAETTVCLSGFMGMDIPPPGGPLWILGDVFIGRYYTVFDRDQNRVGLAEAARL
ASSAY_INFO: Inhibitory activity against bovine Cathepsin D was determined
EXPERIMENTAL_ENDPOINT: pIC50
// pIC50: -log10(molar conc.)

The compound CCC(C)CNC(=O)C[C@H](O)C(CC(C)C)NC(=O)C(CCCC/N=C(/S)NC)NC(=O)C(Cc1cccc2ccccc12)Cc1cccc2ccccc12 (stereo partly specified) showed pIC50 equal to 6.11

Values were extracted from ChEMBL document CHEMBL1125654.
